pIC50: −log10 of the molar value.
Assay system EGFR (human), P00533 [L858R]; read-out recorded as pIC50.

For orientation, consider the following solved cases.
compound=CC#CC(=O)Nc1cc(Nc2ncc(Cl)c(Nc3ccccc3P(C)(C)=O)n2)c(OC)cc1OC1COC1 experimental_value="> 7.30"
compound="C=CC(=O)Nc1cc(Nc2ncc(Cl)c(Nc3ccccc3P(C)(C)=O)n2)c(OC)cc1N1CCC(N(C)CCOC)C1 (stereo not drawn)" experimental_value="> 7.30"
compound=COc1ccc(NC(=O)/C=C/Cl)cc1Nc1ncc(Cl)c(Nc2ccccc2P(C)(C)=O)n1 experimental_value="> 7.30"
compound=COCC#CC(=O)Nc1ccc(OC)c(Nc2ncc(Cl)c(Nc3ccccc3P(C)(C)=O)n2)c1 experimental_value="> 7.30"
compound=COc1cc(N2CCOCC2)c(NC(=O)C#CCCN2CCCCC2)cc1Nc1ncc(Cl)c(Nc2ccccc2P(C)(C)=O)n1 experimental_value="> 7.30"

Data request: Answer briefly: pIC50 recorded on EGFR (human), P00533 [L858R] for COc1cc(C)c(NC(=O)CCl)cc1Nc1ncc(C)c(Nc2ccccc2P(C)(C)=O)n1
Sequence (P00533 whole entry L858R, looked up): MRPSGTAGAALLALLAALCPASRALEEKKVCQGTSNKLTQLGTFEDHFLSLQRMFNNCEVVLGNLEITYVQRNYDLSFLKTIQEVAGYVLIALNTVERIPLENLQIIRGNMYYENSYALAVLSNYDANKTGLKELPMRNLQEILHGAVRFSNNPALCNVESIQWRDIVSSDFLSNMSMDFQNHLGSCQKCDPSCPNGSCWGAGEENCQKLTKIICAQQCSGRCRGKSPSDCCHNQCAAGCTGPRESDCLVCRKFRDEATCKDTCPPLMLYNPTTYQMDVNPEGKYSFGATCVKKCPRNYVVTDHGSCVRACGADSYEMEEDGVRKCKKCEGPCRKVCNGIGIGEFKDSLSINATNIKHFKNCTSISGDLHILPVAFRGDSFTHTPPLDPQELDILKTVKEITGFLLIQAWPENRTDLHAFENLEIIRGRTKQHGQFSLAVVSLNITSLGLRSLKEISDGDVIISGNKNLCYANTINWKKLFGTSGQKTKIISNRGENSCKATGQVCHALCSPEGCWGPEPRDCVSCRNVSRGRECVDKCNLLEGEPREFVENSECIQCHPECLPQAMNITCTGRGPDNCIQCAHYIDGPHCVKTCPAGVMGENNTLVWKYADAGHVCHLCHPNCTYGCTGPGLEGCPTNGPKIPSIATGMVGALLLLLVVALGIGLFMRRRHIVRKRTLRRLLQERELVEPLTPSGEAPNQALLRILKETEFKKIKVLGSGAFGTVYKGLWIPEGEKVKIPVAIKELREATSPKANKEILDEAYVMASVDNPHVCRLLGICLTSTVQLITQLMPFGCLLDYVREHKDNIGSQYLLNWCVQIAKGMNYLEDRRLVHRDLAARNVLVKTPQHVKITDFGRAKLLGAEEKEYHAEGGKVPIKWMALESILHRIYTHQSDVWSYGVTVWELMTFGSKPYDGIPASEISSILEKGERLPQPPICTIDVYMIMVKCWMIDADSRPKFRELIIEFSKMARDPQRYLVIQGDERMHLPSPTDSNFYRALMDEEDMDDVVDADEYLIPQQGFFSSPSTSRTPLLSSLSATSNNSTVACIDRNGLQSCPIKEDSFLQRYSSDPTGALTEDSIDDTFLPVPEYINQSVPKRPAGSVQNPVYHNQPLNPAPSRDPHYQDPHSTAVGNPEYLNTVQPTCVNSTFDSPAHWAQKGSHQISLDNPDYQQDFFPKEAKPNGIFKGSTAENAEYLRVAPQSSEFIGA
Data returned: > 7.30

Data request: Answer briefly: pIC50 recorded on EGFR (human), P00533 [L858R] for C=C(CN1CCS(=O)(=O)CC1)C(=O)Nc1ccc(OC)c(Nc2ncc(Cl)c(Nc3ccccc3P(C)(C)=O)n2)c1
Data returned: 7.00 to 7.30

Data request: Answer briefly: pIC50 recorded on EGFR (human), P00533 [L858R] for COc1ccc(NC(=O)/C=C\C(=O)N2CCN(C)CC2)cc1Nc1ncc(Cl)c(Nc2ccccc2P(C)(C)=O)n1
Data returned: 6.60 to 7.00
